Every entry's value here was drawn from paper PMC7861488.

- target.system: TNF-alpha (UniProt P01375 77-233)
- Sequence (P01375 77-233): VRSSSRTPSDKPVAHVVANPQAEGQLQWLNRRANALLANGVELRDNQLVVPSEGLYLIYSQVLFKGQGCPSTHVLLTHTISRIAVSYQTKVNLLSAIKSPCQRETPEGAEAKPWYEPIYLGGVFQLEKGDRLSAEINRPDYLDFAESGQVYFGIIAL
- protocol.description: graphene FET
parameter: pKd
Answers are plain numbers, as −log10 of the molar value.

Lookup: Looking for the measured pKd of TGGTGGATGGCGCAGTCGGCGACAA (ssDNA, 5'-NH2 (coupled to PASE on graphene)) [VR11] , can you help?
Found: 7.84
